# Type: in vitro ADME
# reported_conditions: 2 μM
Property: STA Human Plasma 37; scope: individual compounds

# compound, STA Human Plasma 37
measured = [
    ("CCOC(=O)c1cccn1C(=O)OC[C@H]1O[C@@](C#N)(c2ccc3c(N)ncnn23)[C@H](OC(C)=O)[C@@H]1OC(C)=O [Compound 20]", 67.544),
    ("CC(=O)O[C@H]1[C@@H](OC(C)=O)[C@](C#N)(c2ccc3c(N)ncnn23)O[C@@H]1COC(=O)N1CCCCCCC1 [Compound 19]", 14.703),
    ("COC(=O)[C@H]1COC(=O)N1C(=O)OC[C@H]1O[C@@](C#N)(c2ccc3c(N)ncnn23)[C@H](O)[C@@H]1O [Compound 5]", 77.22),
    ("CCCSC(=O)OC[C@H]1O[C@@](C#N)(c2ccc3c(N)ncnn23)[C@H](O)[C@@H]1O [Compound 14]", 495.99),
]

* * *

# Test system: Respiratory syncytial virus recombinant with luciferase (RSV-Luc5)
# protocol_description: microbe, parasite or virus in culture
# Type: cell-based
# reported_conditions: human respiratory syncytial virus, NHBE, 72 h, read-out: RSV NHBE EC50 (nM)

# item_smiles, unit_of_measurement, comparative_sign, EC50
rows = [
    ("N#C[C@@]1(c2ccc3c(N)ncnn23)O[C@H](COC(=O)N2C(=O)OC[C@@H]2Cc2ccccc2)[C@@H](O)[C@H]1O", "nM", ">", 50000),
    ("N#C[C@@]1(c2ccc3c(N)ncnn23)O[C@H](COC(=O)N2CCCCCCC2)[C@@H](O)[C@H]1O", "nM", "=", 10300),
    ("CC(C)[C@H](NC(=O)OC[C@H]1O[C@@](C#N)(c2ccc3c(N)ncnn23)[C@H](O)[C@@H]1O)C(=O)O", "nM", ">", 50000),
    ("CC(C)OC(=O)[C@@H](NC(=O)OC[C@H]1O[C@@](C#N)(c2ccc3c(N)ncnn23)[C@H](O)[C@@H]1O)C(C)C", "nM", ">", 50000),
    ("CCOC(=O)c1cccn1C(=O)OC[C@H]1O[C@@](C#N)(c2ccc3c(N)ncnn23)[C@H](OC(C)=O)[C@@H]1OC(C)=O", "nM", "=", 731),
    ("N#C[C@@]1(c2ccc3c(N)ncnn23)O[C@H](COC(=O)N2CCCO2)[C@@H](O)[C@H]1O", "nM", "=", 35300),
    ("CC(C)NC(=O)OC[C@H]1O[C@@](C#N)(c2ccc3c(N)ncnn23)[C@H](O)[C@@H]1O", "nM", ">", 50000),
    ("CC(=O)O[C@H]1[C@@H](OC(C)=O)[C@](C#N)(c2ccc3c(N)ncnn23)O[C@@H]1COC(=O)NC(C)C", "nM", ">", 50000),
    ("N#C[C@@]1(c2ccc3c(N)ncnn23)O[C@H](COC(=O)N2CCCCC2)[C@@H](O)[C@H]1O", "nM", ">", 50000),
    ("CC(=O)O[C@H]1[C@@H](OC(C)=O)[C@](C#N)(c2ccc3c(N)ncnn23)O[C@@H]1COC(=O)SC1CCCC1", "nM", "=", 1250),
    ("CC(=O)O[C@H]1[C@@H](OC(C)=O)[C@](C#N)(c2ccc3c(N)ncnn23)O[C@@H]1COC(=O)SC(C)(C)C", "nM", "=", 19400),
    ("CCSC(=O)OC[C@H]1O[C@@](C#N)(c2ccc3c(N)ncnn23)[C@H](OC(C)=O)[C@@H]1OC(C)=O", "nM", "=", 3810),
    ("CCCSC(=O)OC[C@H]1O[C@@](C#N)(c2ccc3c(N)ncnn23)[C@H](O)[C@@H]1O", "nM", "=", 2620),
    ("N#C[C@@]1(c2ccc3c(N)ncnn23)O[C@H](COC(=O)SC2CCCC2)[C@@H](O)[C@H]1O", "nM", "=", 2810),
    ("N#C[C@@]1(c2ccc3c(N)ncnn23)O[C@H](COC(=O)N2CCS(=O)(=O)CC2)[C@@H](O)[C@H]1O", "nM", ">", 50000),
    ("CCCSC(=O)OC[C@H]1O[C@@](C#N)(c2ccc3c(N)ncnn23)[C@H](OC(C)=O)[C@@H]1OC(C)=O", "nM", "=", 3320),
    ("COC(=O)c1cn(C(=O)OC[C@H]2O[C@@](C#N)(c3ccc4c(N)ncnn34)[C@H](O)[C@@H]2O)c2ccccc12", "nM", "=", 5590),
    ("CC(C)(C)SC(=O)OC[C@H]1O[C@@](C#N)(c2ccc3c(N)ncnn23)[C@H](O)[C@@H]1O", "nM", "=", 8110),
    ("CCOC(=O)c1cccn1C(=O)OC[C@H]1O[C@@](C#N)(c2ccc3c(N)ncnn23)[C@H](O)[C@@H]1O", "nM", "=", 1520),
    ("COC(=O)[C@H]1COC(=O)N1C(=O)OC[C@H]1O[C@@](C#N)(c2ccc3c(N)ncnn23)[C@H](O)[C@@H]1O", "nM", "=", 20100),
    ("N#C[C@@]1(c2ccc3c(N)ncnn23)O[C@H](COC(=O)n2cc(C(=O)OC3CCOCC3)c3ccccc32)[C@@H](O)[C@H]1O", "nM", "=", 14100),
    ("CC(=O)O[C@H]1[C@@H](OC(C)=O)[C@](C#N)(c2ccc3c(N)ncnn23)O[C@@H]1COC(=O)N1CCCCC1", "nM", ">", 50000),
    ("CCSC(=O)OC[C@H]1O[C@@](C#N)(c2ccc3c(N)ncnn23)[C@H](O)[C@@H]1O", "nM", "=", 5650),
    ("CC(=O)O[C@H]1[C@@H](OC(C)=O)[C@](C#N)(c2ccc3c(N)ncnn23)O[C@@H]1COC(=O)N1CCCCCCC1", "nM", "=", 18000),
]

* * *

# Assay type: in vitro ADME
# reported_conditions: 2 μM
Property: STA Human Plasma 37; scope: individual compounds

# item_smiles, STA Human Plasma 37
rows = [
    ("N#C[C@@]1(c2ccc3c(N)ncnn23)O[C@H](COC(=O)N2C(=O)OC[C@@H]2Cc2ccccc2)[C@@H](O)[C@H]1O", 253.23),
    ("CC(=O)O[C@H]1[C@@H](OC(C)=O)[C@](C#N)(c2ccc3c(N)ncnn23)O[C@@H]1COC(=O)NC(C)C", 16.014),
    ("N#C[C@@]1(c2ccc3c(N)ncnn23)O[C@H](COC(=O)n2cc(C(=O)OC3CCOCC3)c3ccccc32)[C@@H](O)[C@H]1O", 1055.4),
]

* * *

# protocol_description: in vitro
# Format: in vitro ADME
# reported_conditions: human, s9, pH 7.4
measured_parameter: half-life at 2 μM

# compound, result
rows = [
    ("CCCSC(=O)OC[C@H]1O[C@@](C#N)(c2ccc3c(N)ncnn23)[C@H](OC(C)=O)[C@@H]1OC(C)=O [Compound 22]", "≤ 2 min"),
    ("CC(=O)O[C@H]1[C@@H](OC(C)=O)[C@](C#N)(c2ccc3c(N)ncnn23)O[C@@H]1COC(=O)N1CCCCCCC1 [Compound 19]", "≤ 2 min"),
    ("CCSC(=O)OC[C@H]1O[C@@](C#N)(c2ccc3c(N)ncnn23)[C@H](OC(C)=O)[C@@H]1OC(C)=O [Compound 23]", "≤ 2 min"),
    ("N#C[C@@]1(c2ccc3c(N)ncnn23)O[C@H](COC(=O)SC2CCCC2)[C@@H](O)[C@H]1O [Compound 16]", "6.2 min"),
    ("N#C[C@@]1(c2ccc3c(N)ncnn23)O[C@H](COC(=O)N2CCCCCCC2)[C@@H](O)[C@H]1O [Compound 9]", "526 min"),
    ("CC(C)OC(=O)[C@@H](NC(=O)OC[C@H]1O[C@@](C#N)(c2ccc3c(N)ncnn23)[C@H](O)[C@@H]1O)C(C)C [Compound 7]", "≥ 592 min"),
    ("CC(=O)O[C@H]1[C@@H](OC(C)=O)[C@](C#N)(c2ccc3c(N)ncnn23)O[C@@H]1COC(=O)SC1CCCC1 [Compound 25]", "≤ 2 min"),
]

* * *

# protocol_description: physchem
# Assay type: physicochemical
# reported_conditions: pH 7, aqueous buffer, thermodynamic from solid
Class 1.0: solubility thermodynamic at 24 h at least 100 µg/mL. Class 0.0: solubility thermodynamic at 24 h below 100 µg/mL.

# molecule, label_value
data = [
    ("CCOC(=O)c1cccn1C(=O)OC[C@H]1O[C@@](C#N)(c2ccc3c(N)ncnn23)[C@H](OC(C)=O)[C@@H]1OC(C)=O [Compound 20]", 0.0),
    ("CC(C)NC(=O)OC[C@H]1O[C@@](C#N)(c2ccc3c(N)ncnn23)[C@H](O)[C@@H]1O [Compound 8]", 1.0),
    ("CC(=O)O[C@H]1[C@@H](OC(C)=O)[C@](C#N)(c2ccc3c(N)ncnn23)O[C@@H]1COC(=O)N1CCCCC1 [Compound 21]", 1.0),
    ("N#C[C@@]1(c2ccc3c(N)ncnn23)O[C@H](COC(=O)n2cc(C(=O)OC3CCOCC3)c3ccccc32)[C@@H](O)[C@H]1O [Compound 2]", 1.0),
    ("CC(=O)O[C@H]1[C@@H](OC(C)=O)[C@](C#N)(c2ccc3c(N)ncnn23)O[C@@H]1COC(=O)N1CCCCCCC1 [Compound 19]", 1.0),
    ("N#C[C@@]1(c2ccc3c(N)ncnn23)O[C@H](COC(=O)N2CCCCC2)[C@@H](O)[C@H]1O [Compound 13]", 1.0),
]
